Target: P2X7 receptor (Homo sapiens (Human), UniProt Q99572)
Sequence (Q99572 whole entry): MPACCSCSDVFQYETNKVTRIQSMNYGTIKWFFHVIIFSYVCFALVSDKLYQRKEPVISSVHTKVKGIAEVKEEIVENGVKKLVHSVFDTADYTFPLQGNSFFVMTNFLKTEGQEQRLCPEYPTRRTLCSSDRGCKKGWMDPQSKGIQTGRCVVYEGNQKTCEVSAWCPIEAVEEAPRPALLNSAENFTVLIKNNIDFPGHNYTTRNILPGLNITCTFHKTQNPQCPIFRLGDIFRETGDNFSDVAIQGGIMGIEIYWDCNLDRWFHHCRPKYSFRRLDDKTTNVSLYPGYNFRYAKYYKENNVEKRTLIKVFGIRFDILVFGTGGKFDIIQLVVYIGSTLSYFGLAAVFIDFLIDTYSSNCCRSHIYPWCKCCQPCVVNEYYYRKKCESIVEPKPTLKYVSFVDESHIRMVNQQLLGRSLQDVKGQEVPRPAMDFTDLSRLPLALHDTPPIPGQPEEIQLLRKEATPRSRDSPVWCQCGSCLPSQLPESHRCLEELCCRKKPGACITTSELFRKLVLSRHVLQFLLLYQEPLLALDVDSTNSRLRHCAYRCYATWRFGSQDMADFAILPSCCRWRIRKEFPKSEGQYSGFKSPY
Assay: Human P2X7 channel calcium-influx assay (Fluo-8 NW, FLIPR TETRA, Bz-ATP stimulation)
Format: cell-based
Conditions: HEK-293 cells stably transfected with P2X7 receptor, Low Divalent Cation Assay Buffer, read-out: hP2X7 IC50
pIC50: −log10 of the molar value.

[
  {
    "compound": "O=C(NCC(c1scnc1C(F)F)N1CCC(COc2nc(C3CC3)ns2)CC1)c1c(F)cccc1Cl (centres unmarked) [Example 87]",
    "pIC50": 7.43
  },
  {
    "compound": "O=C(NCC(c1scnc1C(F)F)N1CCC(Oc2ccnc3cccnc23)CC1)c1c(F)cccc1Cl (centres unmarked) [Example 48]",
    "pIC50": 7.13
  },
  {
    "compound": "O=C(NCC(c1scnc1C(F)F)N1CCC(COc2nccnc2F)CC1)c1c(F)cccc1Cl (centres unmarked) [Example 106]",
    "pIC50": 7.40
  },
  {
    "compound": "O=C(NCC(c1scnc1C(F)F)N1CCC(Oc2nc(C3CC3)ns2)CC1)c1c(F)cccc1Cl (centres unmarked) [Example 13]",
    "pIC50": 7.72
  },
  {
    "compound": "O=C(NCC(c1scnc1C(F)F)N1CCC(Oc2ccc(F)cn2)CC1)c1c(F)cccc1Cl (centres unmarked) [Example 30]",
    "pIC50": 7.76
  },
  {
    "compound": "O=C(NCC(c1scnc1C(F)F)N1CCC(Oc2ccc(F)nn2)CC1)c1c(F)cccc1Cl (centres unmarked) [Example 32]",
    "pIC50": 7.67
  },
  {
    "compound": "Cc1nsc(OCC2CCN(C(CNC(=O)c3c(F)cccc3Cl)c3scnc3C(F)F)CC2)n1 (centres unmarked) [Example 85]",
    "pIC50": 7.49
  },
  {
    "compound": "Cc1c(F)ncnc1OCC1CCN(C(CNC(=O)c2c(F)cccc2Cl)c2scnc2C(F)F)CC1 (centres unmarked) [Example 113]",
    "pIC50": 7.41
  }
]

###

Molecular target: P2X7 receptor (Homo sapiens (Human), UniProt Q99572)
Test: Human P2X7 channel calcium-influx assay (Fluo-8 NW, FLIPR TETRA, Bz-ATP stimulation)
Details: HEK-293 cells stably transfected with P2X7 receptor, Low Divalent Cation Assay Buffer, read-out: hP2X7 IC50
pIC50: −log10 of the molar value.
readout_kind: pIC50

[
  {
    "compound": "O=C(NCC(c1scnc1C(F)F)N1CCC(Oc2ccncc2F)CC1)c1c(F)cccc1Cl (stereo not shown)",
    "experimental_value": 7.30
  },
  {
    "compound": "O=C(NCC(c1scnc1C(F)F)N1CCC(COc2cc(F)ncn2)CC1)c1c(F)cccc1Cl (stereo not shown)",
    "experimental_value": 7.68
  },
  {
    "compound": "O=C(NCC(c1scnc1C(F)F)N1CCC(Oc2cncc3nncn23)CC1)c1c(F)cccc1Cl (stereo not shown)",
    "experimental_value": 6.60
  },
  {
    "compound": "N#Cc1ccncc1OC1CCN(C(CNC(=O)c2c(F)cccc2Cl)c2scnc2C(F)F)CC1 (stereo not shown)",
    "experimental_value": 7.24
  },
  {
    "compound": "O=C(NCC(c1scnc1C(F)F)N1CCC(COc2ccnc(F)c2)CC1)c1c(F)cccc1Cl (stereo not shown)",
    "experimental_value": 7.79
  },
  {
    "compound": "Cc1cccc(OCC2CCN(C(CNC(=O)c3c(F)cccc3Cl)c3scnc3C(F)F)CC2)n1 (stereo not shown)",
    "experimental_value": 7.56
  },
  {
    "compound": "N#Cc1cccnc1OCC1CCN(C(CNC(=O)c2c(F)cccc2Cl)c2scnc2C(F)F)CC1 (stereo not shown)",
    "experimental_value": 7.59
  },
  {
    "compound": "O=C(NCC(c1scnc1C(F)F)N1CCC(Oc2ncccn2)CC1)c1c(F)cccc1Cl (stereo not shown)",
    "experimental_value": 7.24
  },
  {
    "compound": "O=C(NCC(c1scnc1C(F)F)N1CCC(Oc2cc(C(F)(F)F)ncn2)CC1)c1c(F)cccc1Cl (stereo not shown)",
    "experimental_value": 7.16
  },
  {
    "compound": "N#Cc1cncc(OC2CCN(C(CNC(=O)c3c(F)cccc3Cl)c3scnc3C(F)F)CC2)c1 (stereo not shown)",
    "experimental_value": 7.24
  },
  {
    "compound": "Cc1nc(F)cc(OC2CCN(C(CNC(=O)c3c(F)cccc3Cl)c3scnc3C(F)F)CC2)n1 (stereo not shown)",
    "experimental_value": 7.29
  },
  {
    "compound": "O=C(NCC(c1scnc1C(F)F)N1CCC(COc2nccc(C(F)(F)F)n2)CC1)c1c(F)cccc1Cl (stereo not shown)",
    "experimental_value": 7.29
  },
  {
    "compound": "O=C(NCC(c1scnc1C(F)F)N1CCC(Oc2ncccc2F)CC1)c1c(F)cccc1Cl (stereo not shown)",
    "experimental_value": 7.49
  },
  {
    "compound": "O=C(NCC(c1scnc1C(F)F)N1CCC(Oc2nccs2)CC1)c1c(F)cccc1Cl (stereo not shown)",
    "experimental_value": 7.63
  },
  {
    "compound": "O=C(NCC(c1scnc1C(F)F)N1CCC(COc2ccc(F)nn2)CC1)c1c(F)cccc1Cl (stereo not shown)",
    "experimental_value": 7.30
  },
  {
    "compound": "N#Cc1cc(OC2CCN(C(CNC(=O)c3c(F)cccc3Cl)c3scnc3C(F)F)CC2)ccn1 (stereo not shown)",
    "experimental_value": 7.31
  }
]

###

Biological target: P2X7 receptor (Homo sapiens (Human))
Assay: Human P2X7 channel calcium-influx assay (Fluo-8 NW, FLIPR TETRA, Bz-ATP stimulation)
Settings: HEK-293 cells stably transfected with P2X7 receptor, Low Divalent Cation Assay Buffer, read-out: hP2X7 IC50
pIC50: −log10 of the molar value.
This listing pairs molecules with measured pIC50.

[
  {
    "molecule": "N#Cc1ncccc1OCC1CCN(C(CNC(=O)c2c(F)cccc2Cl)c2scnc2C(F)F)CC1 (centres unmarked)",
    "pIC50": 7.70
  },
  {
    "molecule": "Cc1ccnc(OCC2CCN(C(CNC(=O)c3c(F)cccc3Cl)c3scnc3C(F)F)CC2)c1 (centres unmarked)",
    "pIC50": 7.53
  },
  {
    "molecule": "COCCc1nsc(OC2CCN(C(CNC(=O)c3c(F)cccc3Cl)c3scnc3C(F)F)CC2)n1 (centres unmarked)",
    "pIC50": 7.13
  },
  {
    "molecule": "O=C(NCC(c1scnc1C(F)F)N1CCC(Oc2ncccc2C(F)(F)F)CC1)c1c(F)cccc1Cl (centres unmarked)",
    "pIC50": 7.53
  },
  {
    "molecule": "O=C(NCC(c1scnc1C(F)F)N1CCC(Oc2nccc3ncccc23)CC1)c1c(F)cccc1Cl (centres unmarked)",
    "pIC50": 7.71
  },
  {
    "molecule": "N#Cc1nccnc1OCC1CCN(C(CNC(=O)c2c(F)cccc2Cl)c2scnc2C(F)F)CC1 (centres unmarked)",
    "pIC50": 7.65
  },
  {
    "molecule": "O=C(NCC(c1scnc1C(F)F)N1CCC(Oc2nccn3nccc23)CC1)c1c(F)cccc1Cl (centres unmarked)",
    "pIC50": 7.55
  },
  {
    "molecule": "COc1cc(OC2CCN(C(CNC(=O)c3c(F)cccc3Cl)c3scnc3C(F)F)CC2)ncn1 (centres unmarked)",
    "pIC50": 7.25
  }
]

###

Target: UniProt Q99572
Experiment: Human P2X7 channel calcium-influx assay (Fluo-8 NW, FLIPR TETRA, Bz-ATP stimulation)
Conditions: HEK-293 cells stably transfected with P2X7 receptor, Low Divalent Cation Assay Buffer, read-out: hP2X7 IC50
readout_kind: IC50 (nM)

[
  {
    "compound": "Cc1nnc2c(OC3CCN(C(CNC(=O)c4c(F)cccc4Cl)c4scnc4C(F)F)CC3)nccn12 (stereo not shown)",
    "endpoint_unit": "nM",
    "experimental_value": 274
  },
  {
    "compound": "N#Cc1cccc(OCC2CCN(C(CNC(=O)c3c(F)cccc3Cl)c3scnc3C(F)F)CC2)n1 (stereo not shown)",
    "endpoint_unit": "nM",
    "experimental_value": 24.9
  },
  {
    "compound": "COc1ccnc(OC2CCN(C(CNC(=O)c3c(F)cccc3Cl)c3scnc3C(F)F)CC2)n1 (stereo not shown)",
    "endpoint_unit": "nM",
    "experimental_value": 65.8
  },
  {
    "compound": "Cc1cnc(OC2CCN(C(CNC(=O)c3c(F)cccc3Cl)c3scnc3C(F)F)CC2)nc1 (stereo not shown)",
    "endpoint_unit": "nM",
    "experimental_value": 64.4
  },
  {
    "compound": "O=C(NCC(c1scnc1C(F)F)N1CCC(COc2nccs2)CC1)c1c(F)cccc1Cl (stereo not shown)",
    "endpoint_unit": "nM",
    "experimental_value": 15.2
  },
  {
    "compound": "Cc1noc(C)c1COC1CCN(C(CNC(=O)c2c(F)cccc2Cl)c2scnc2C(F)F)CC1 (stereo not shown)",
    "endpoint_unit": "nM",
    "experimental_value": 64
  },
  {
    "compound": "N#Cc1cccnc1OC1CCN(C(CNC(=O)c2c(F)cccc2Cl)c2scnc2C(F)F)CC1 (stereo not shown)",
    "endpoint_unit": "nM",
    "experimental_value": 53.8
  },
  {
    "compound": "Cc1cc(OC2CCN(C(CNC(=O)c3c(F)cccc3Cl)c3scnc3C(F)F)CC2)nc(F)n1 (stereo not shown)",
    "endpoint_unit": "nM",
    "experimental_value": 22.8
  },
  {
    "compound": "O=C(NCC(c1scnc1C(F)F)N1CCC(Oc2ncccc2Cl)CC1)c1c(F)cccc1Cl (stereo not shown)",
    "endpoint_unit": "nM",
    "experimental_value": 31
  },
  {
    "compound": "O=C(NCC(c1scnc1C(F)F)N1CCC(COc2ccnc(F)n2)CC1)c1c(F)cccc1Cl (stereo not shown)",
    "endpoint_unit": "nM",
    "experimental_value": 55.2
  },
  {
    "compound": "Cc1cc(OC2CCN(C(CNC(=O)c3c(F)cccc3Cl)c3scnc3C(F)F)CC2)ccn1 (stereo not shown)",
    "endpoint_unit": "nM",
    "experimental_value": 64.9
  },
  {
    "compound": "O=C(NCC(c1scnc1C(F)F)N1CCC(Oc2nc(-c3ccccc3)no2)CC1)c1c(F)cccc1Cl (stereo not shown)",
    "endpoint_unit": "nM",
    "experimental_value": 98.1
  },
  {
    "compound": "Cc1nsc(OC2CCN(C(CNC(=O)c3c(F)cccc3Cl)c3scnc3C(F)F)CC2)n1 (stereo not shown)",
    "endpoint_unit": "nM",
    "experimental_value": 50.5
  },
  {
    "compound": "O=C(NCC(c1scnc1C(F)F)N1CCC(Oc2nccc(C(F)(F)F)n2)CC1)c1c(F)cccc1Cl (stereo not shown)",
    "endpoint_unit": "nM",
    "experimental_value": 60.8
  },
  {
    "compound": "N#Cc1cnccc1OC1CCN(C(CNC(=O)c2c(F)cccc2Cl)c2scnc2C(F)F)CC1 (stereo not shown)",
    "endpoint_unit": "nM",
    "experimental_value": 89
  },
  {
    "compound": "O=C(NCC(c1scnc1C(F)F)N1CCC(COc2cncc(F)n2)CC1)c1c(F)cccc1Cl (stereo not shown)",
    "endpoint_unit": "nM",
    "experimental_value": 48.4
  }
]
